Test system: NF-kB reporter in Jurkat cells
assay-info: NF-kB reporter assay in Jurkat cells stimulated with aCD3/aCD28/PMA
Type: cell-based
test-parameters: Homo sapiens; Jurkat cells, 1 hr compound pre-incubation, aCD3/aCD28/PMA stimulation 4 hr, One-Glo readout; read-out: NF-kB Reporter Assay IC50
pIC50: −log10 of the molar value.
observed-property: pIC50

* Cn1ncc2cccc(NS(=O)(=O)c3cnn(-c4cc(N5CC(C#N)C5)ccn4)c3)c21 | > 6.40
* Cn1ncc2cccc(NS(=O)(=O)c3cnn(-c4cc(C5(F)CCOCC5)ccn4)c3)c21 | > 6.40
* COc1ccc2cnn(C)c2c1NS(=O)(=O)c1cnn(-c2cc(C)ccn2)c1 | > 6.40
* Cn1ncc2cccc(NS(=O)(=O)c3cnn(-c4cc(N5CCCC5)ccn4)c3)c21 | > 6.40
* COc1ncc2cnn(C)c2c1NS(=O)(=O)c1cnn(-c2cc(N3CCOCC3)ccn2)c1 | 5.60 to 6.00
* COc1ccc2cnn(C)c2c1NS(=O)(=O)c1cn(-c2cc(C(F)(F)F)ccn2)nc1C | > 6.40
* COc1ccc2cnn(C)c2c1NS(=O)(=O)c1cnn(-c2cc([C@@H](C)O)ccn2)c1 | > 6.40
* COC[C@](C)(O)c1ccnc(-n2cc(S(=O)(=O)Nc3cccc4cnn(C)c34)cn2)c1 | > 6.40
* COc1ncc2cnn(C)c2c1NS(=O)(=O)c1cnn(-c2cc(C(C)O)ccn2)c1 (single isomer, unassigned) | 6.00 to 6.40
* COC1(c2ccnc(-n3cc(S(=O)(=O)Nc4cccc5cnn(C)c45)cn3)c2)CC(F)(F)C1 | > 6.40
* COc1ncc2cnn(C)c2c1NS(=O)(=O)c1cnn(-c2cc(N3CC[C@@H](F)C3)ccn2)c1 | 6.00 to 6.40
* Cn1ncc2cccc(NS(=O)(=O)c3cnn(-c4cc(C5(O)CC(C)(C)C5)ccn4)c3)c21 | > 6.40
* COc1ccc2[nH]nc(C)c2c1N(C)S(=O)(=O)c1cnn(-c2cc(C(F)(F)F)ccn2)c1 | > 6.40
* C[C@@H]1CCN(c2ccnc(-n3cc(S(=O)(=O)Nc4cccc5cnn(C)c45)cn3)c2)C1 | > 6.40
* CN(C)c1ccc2cnn(C)c2c1NS(=O)(=O)c1cnn(-c2ccnc(C(F)(F)F)c2)c1 | 6.00 to 6.40
